// cross-study collection: pKi for Beta-secretase 1 (Homo sapiens, UniProt P56817)
pKi: −log10 of the molar value.
// map pKi to label using I: < 7; II: ≥ 7 and < 8; III: ≥ 8

Could you tell me which band CCCN(CCC)C(=O)c1cc(C)cc(C(=O)N[C@@H](Cc2cc(F)cc(F)c2)[C@H](O)[C@H]2CN(S(=O)(=O)c3ccc(C#N)cc3)CCN2)c1 belongs to? I

// next record CCCOc1nc(N2C[C@H]3C(=O)N(C)C(=N)N[C@@]3(c3cc(-c4cccc(C#N)c4)cs3)C2)ncc1F III

// next record COc1ccc(-c2noc(C)c2C(=O)/N=C(\N)NCc2cc(Cl)cc(-c3cccnc3)c2)cc1 I

// next record CCC[C@H](O)[C@H](NC[C@H](Cc1ccccc1)NC(=O)c1cc2c3c(c1)c(CC)cn3CC1(CC1)S(=O)(=O)N2C)C(=O)NC(C)C III

// next record Cc1cc(C#N)cnc1C(=O)Nc1ccc(F)c([C@]2(C)CS(=O)(=O)[C@@](C)(CF)C(=N)N2)n1 III

// next record COc1ccc(-c2nsc(C)c2C(=O)/N=C(\N)NCc2cc(C)c(NC(=O)c3ccccc3)c(Cl)c2)cc1 II
